We begin with pIC50 values for Receptor-type tyrosine-protein kinase FLT3 (Homo sapiens), as collected from the published literature.
pIC50: −log10 of the molar value.

Here's what some known entries look like.
{"columns": ["Compound", "Test Target", "Value Reported"],
 "data": [
  ["O=c1c2cc(F)ccc2sc2c(NCCN3CCCC3)nc3ccccc3c12", "Receptor-type tyrosine-protein kinase FLT3 (Homo sapiens)", "6.00 to 6.30"],
  ["COc1ccc(C(=O)NC(=O)Nc2ccc3c(c2)NC(=O)/C3=C\\c2[nH]c(C)c(-c3ccccc3)c2C)cc1", "Receptor-type tyrosine-protein kinase FLT3 (Homo sapiens)", "< 6.00"]
]}

Reported pIC50 of CCc1nc2c(N)ncc(-c3cnn(C4CCN(c5ccnc(C)n5)CC4)c3)c2nc1N[C@@H]1CC[C@H](O)C1 : ≥ 8.00

Reported pIC50 of CN1CCN(c2ccc3nc(-c4c(NCC5CCOCC5)c5sccc5[nH]c4=O)[nH]c3c2)CC1 : ≥ 7.30

Reported pIC50 of CC(C)C(C)Nc1ncc2c(OC3CCNCC3)ncc([C@H]3CC[C@H](O)CC3)c2n1 (stereo partly shown) : 5.00 to 6.00

Reported pIC50 of COC[C@H](C)Nc1ncc2c(-c3cccc(N4C[C@H]5COC[C@H]5C4)c3)cc([C@H]3CC[C@H](O)CC3)n2n1 : 6.00 to 7.00

Reported pIC50 of COC(=O)c1ccc(Nc2ncc3c(OC4CCNCC4)ncc([C@H]4CC[C@H](O)CC4)c3n2)cc1 : 6.00 to 7.00

###

pIC50: −log10 of the molar value.
We begin with pIC50 values for Receptor-type tyrosine-protein kinase FLT3 (Homo sapiens, UniProt P36888), as collected from the published literature.

Here's what some known entries look like.
{"columns": ["Compound", "Test Target", "Property Measured", "Value Reported"],
 "data": [
  ["COc1cccc(NC(=O)Nc2ccc(-c3cc(-c4nc5cc(N6CCN(C)CC6)ccc5[nH]4)n[nH]3)cc2)c1", "Receptor-type tyrosine-protein kinase FLT3 (Homo sapiens, UniProt P36888)", "pIC50", "> 7.30"],
  ["COCC(C)Nc1ncc2c(-c3ccc4[nH]cnc4c3)cc(C3CCC(O)CC3)n2n1 (stereo not shown)", "Receptor-type tyrosine-protein kinase FLT3 (Homo sapiens, UniProt P36888)", "pIC50", "6.00 to 7.00"],
  ["CCc1nc2c(N)ncc(-c3cnn(-c4cnc(C#N)cn4)c3)c2nc1N[C@@H]1CC[C@H](O)C1", "Receptor-type tyrosine-protein kinase FLT3 (Homo sapiens, UniProt P36888)", "pIC50", "≥ 8.00"]
]}

# value of pIC50, Receptor-type tyrosine-protein kinase FLT3 (Homo sapiens, UniProt P36888), item COC[C@H](C)Nc1ncc2c(-c3ccnc(N4CCN(CC5COC5)CC4)c3)cc([C@H]3CC[C@H](O)CC3)n2n1 = 6.00 to 7.00

# value of pIC50, Receptor-type tyrosine-protein kinase FLT3 (Homo sapiens, UniProt P36888), item CC[C@H](C)Nc1ncc2c(C3CCNCC3)cc([C@H]3CC[C@H](O)CC3)n2n1 = 6.00 to 7.00

# value of pIC50, Receptor-type tyrosine-protein kinase FLT3 (Homo sapiens, UniProt P36888), item COCCOc1cc2ncnc(Oc3ccc(NC(=O)c4c(C)n(C)c5ccc(OC(F)(F)F)cc5c4=O)cc3F)c2cc1OCCOC = 8.33

# value of pIC50, Receptor-type tyrosine-protein kinase FLT3 (Homo sapiens, UniProt P36888), item COC[C@H](C)Nc1ncc2c(-c3conc3C)cc([C@H]3CC[C@H](O)CC3)n2n1 = 5.00 to 6.00
